Exercise: state measured Ki for each of the binders provided.
- assayTarget: T1, MDM2 (In-house, 41 kD) (UniProt Q00987 1-138, limits assumed)
- T1 construct: Construct used in the FP assays is described only as in-house, 41 kD; also called HDM2
- T1 sequence (Q00987 1-138 limits assumed): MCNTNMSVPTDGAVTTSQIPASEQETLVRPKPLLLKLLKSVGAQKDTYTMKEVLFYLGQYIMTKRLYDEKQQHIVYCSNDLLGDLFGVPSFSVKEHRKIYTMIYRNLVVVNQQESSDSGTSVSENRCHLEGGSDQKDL
- experimentSummary: competitive fluorescence polarization vs FAM-labeled linear peptide; grade of Ki (MDM2); scale in paragraph 664: ++++ = <=10 nM

LTFXAYWAQLXAAXA (N-terminal acetyl (Ac); position 4 = $4rn6 (alpha-Me R-azide 1,4 triazole, 6 carbon) crosslinked to position 11 = $4a5 (alpha-Me alkyne 1,4 triazole, 5 carbon); position 14 = Nle (norleucine); C-terminal amide (NH2), Triazole-crosslinked macrocycle of Formula I; also called Ac-LTF$4rn6AYWAQL$4a5AANleA-NH2) [SP-449] has a reported Ki of ≤ 10 nM

LTFCAYWAQLCAAAAAA (N-terminal acetyl (Ac); position 4 = %cs7 (alpha-methyl-D-cysteine) connected by an i to i+7 seven-methylene bis-thioether crosslinker to position 11 = %c7 (alpha-methyl-L-cysteine); position 17 = D-alanine (a); C-terminal amide (NH2), Thioether-crosslinked macrocycle of Formula II; also called Ac-LTF%cs7AYWAQL%c7AAAAAa-NH2) [SP-917] has a reported Ki of ≤ 10 nM

LTFCAYWAQLCAAXA (N-terminal acetyl (Ac); position 4 = %cs7 (alpha-methyl-D-cysteine) connected by an i to i+7 seven-methylene bis-thioether crosslinker to position 11 = %c7 (alpha-methyl-L-cysteine); position 14 = Nle (norleucine); C-terminal amide (NH2), Thioether-crosslinked macrocycle of Formula II; also called Ac-LTF%cs7AYWAQL%c7AANleA-NH2) [SP-916] has a reported Ki of ≤ 10 nM
